Where these numbers come from: ChEMBL document CHEMBL1201862

- Tested on: NCI-H522
- protocol.notes: NCI tumour cell line growth inhibition, 48 h
Activity calls are given as the source filed them. No stated cut-off is given here; in the data, active = GI50 up to about 1.1 µM and inactive = higher.
quantity.name: GI50

// fetch GI50 given entry Cn1c(=O)n(CC2CS2)c2ccccc21 (stereo not given)
> 100 µM (inactive)

Provide one value: measured GI50 of NC1(c2cc3ccccc3s2)CCCC1
92.5 µM (inactive)

Give the measured GI50 for O=C(Cn1c(=O)oc2ccc(C(=O)c3cccc(Cl)c3)cc21)c1ccccc1
> 100 µM (inactive)

Identify GI50 associated with the compound CCC1(O)CC(CCN(Cc2ccccc2)C(=O)OCc2ccccc2)C(OCc2ccccc2)C1O (stereo not given)
10.1 µM (inactive)

Quote GI50 reported for Cn1c(=O)c2nc3sc4ccccc4c(=N)n3c2n(C)c1=O please.
> 100 µM (inactive)

State its GI50 for this compound: COc1ccc(CNc2nc3cc(C(F)(F)F)ccc3nc2-c2ccccc2)cc1OC
36.1 µM (inactive)

Output measured GI50 for this item: CN(C(=O)c1ccc(Cl)s1)C(=S)N(C)C(=O)c1ccc(Cl)s1
> 10 µM (inactive)

Annotate the compound NC(=O)Nc1ccc(S(=O)(=O)Nc2ccc(S(N)(=O)=O)cc2)cc1 with its measured GI50.
> 100 µM (inactive)

Determine from records and report GI50 for CC1(C)C2CCC1(CS(=O)(=O)Nc1ccccc1)C(=O)C2 (stereo not given)
> 100 µM (inactive)

Look up GI50 of Brc1ccc2c3c1[C@@H]1O[C@@H]1c1cccc(c1-3)[C@@H]1O[C@H]21 and report it.
13.8 µM (inactive)

---

- System: RXF 631
- protocol.notes: NCI tumour cell line growth inhibition, 48 h
Active and inactive are the calls of the source. Rule as the data show it: active = GI50 up to about 1.1 µM and inactive = higher.
One label from this list, please: active, inactive

Status in this test for Cc1ccc(C(=O)CC2=Nc3nnc(CCCCCCCc4nnc5n4C(=O)C(CC(=O)c4ccc(C)cc4)=N5)n3C2=O)cc1 ?
inactive

Which outcome was entered for the molecule CCOC(=O)CC(=O)ON(C)C(=O)Cc1ccccc1 in this test?
inactive

Which result was noted for this molecule in the test: Cn1c(=O)c2nc3sc4ccccc4c(=N)n3c2n(C)c1=O
inactive

Returns: the outcome recorded for COc1cc(C2C3=C(CCC3=O)Oc3cc4c(cc32)OCO4)cc(OC)c1OC (stereo not drawn) in this assay.
active

Which outcome was assigned to O=C(c1ccccc1)[C@H]1Nc2ccc(Cl)cc2[C@H]2OCCC[C@@H]12 in this test?
inactive

I'd appreciate the recorded outcome for CC#CCC1CCC(OCC)=CC1=O (stereo not drawn) from this test.
inactive

Recorded call for C[N+]1(C)C/C(=C/c2ccc(F)cc2)C(=O)/C(=C\c2ccc(F)cc2)C1 ?
inactive

Each molecule tested received a call. Report the one for O=C(c1ccccc1)[C@H]1Nc2cnccc2C2c3ccccc3CC21 (stereo partly drawn) .
inactive

Look up the recorded call for N=C(N)NCCCC(Nc1c2ccccc2[n+]([O-])c2ccccc12)C(=O)O (stereo not drawn) in this test.
inactive

Please share the test call associated with CCCCCC(=O)OC[n+]1ccc2c(C)c3[nH]c4ccc(OC)cc4c3c(C)c2c1 .
active

GET /call?item= CCOC(=O)C(C)(C)Oc1ccc(/C=C/C(=O)c2ccc(Cl)cc2)cc1 returns the recorded outcome of this test.
inactive

Hey, what did the test say about CCOc1ccccc1NC(=O)CCC(=O)NN ?
inactive

Please state the recorded outcome for this molecule: Cc1ccc([S+]([O-])c2ccccc2[N+](=O)[O-])cc1 (stereo not drawn)
inactive

---

Consider the following compounds; for each one, report its GI50.
- System: SNB-19
- protocol.notes: NCI tumour cell line growth inhibition, 48 h
Activity calls are given as the source filed them. Cut-off read from the data, not from the text of the source: active = GI50 up to about 1.1 µM and inactive = higher.

State its GI50: CN(CC(=O)O)c1ncc2c(n1)-c1ccccc1SC2
> 100 µM (inactive)

Supply reported GI50 belonging to this compound: CC1(C)[C@@H]2C[C@H]1c1cnc(-c3ccccn3)cc1C2[C@@H]1c2cc(-c3ccccn3)ncc2[C@@H]2C[C@H]1C2(C)C (stereo partly specified)
69.3 µM (inactive)

Please report GI50 for the following compound: O=C1C=CC(=O)c2c(O)c(N(CCCl)CCCl)c(Cl)c(O)c21
> 10 µM (inactive)

Read off the recorded GI50 for CN(C)C1=NC2=S(SC(Nc3ccccc3)=N2)S1 (stereo unspecified)
26.3 µM (inactive)

Identify measured GI50 corresponding to CCN(CC)c1ccc(C2SCC(=O)N2c2ccc(NC(=O)c3ccc(N4C(=O)CSC4c4ccc(N(CC)CC)cc4)cc3)cc2)cc1 (stereo unspecified)
> 100 µM (inactive)

Read the entry O=C1CCCC(O)=C1SC1=C(O)CCCC1=O and write its reported GI50.
> 100 µM (inactive)

Return the recorded GI50 value; entry: CC[C@@H](/C=C\CCC1(C[C@H](O)CCC=C(C)C)OCCO1)O[Si](C(C)C)(C(C)C)C(C)C
18.9 µM (inactive)

Supply measured GI50 of CCCCCCCCCCCCCCCCCCNc1ccn(C2OC(COP(=O)(O)OCC3OC(n4cc(C)c(=O)[nH]c4=O)CC3O)C(O)C2O)c(=O)n1 (stereo unspecified) in your reply.
15.4 µM (inactive)

Determine from records and report GI50 for COc1ccccc1NC(=S)Nc1cccc(C)n1
> 100 µM (inactive)

Look up and report measured GI50 for this entry: COC(=O)c1ccc(C)cc1C1CN=NC12Cc1c(C)cccc1C2=O (stereo unspecified)
73.1 µM (inactive)

Identify measured GI50 associated with C[C@@H](c1ccccc1)N1CO[C@@]2(C#Cc3ccc4c(c3)OCO4)CCC[C@@H]12
16.1 µM (inactive)

---

Assignment: determine reported log10 GI50 for the given compounds.
- Test system: HCT-15
- protocol.notes: NCI tumour cell line growth inhibition, 48 h
For clarity, the numbers are log10 values of GI50 expressed in µM.

Supply log10 GI50 value. Item: CCCCn1c(-c2ccc([N+](=O)[O-])cc2)cs/c1=N/N=C1\C(=O)Nc2ccc(Br)cc21
1.34

Tell me measured log10 GI50 for COc1ccc(S(=O)(=O)N/N=C/C(=O)O)cc1 please.
2.73

Report log10 GI50 for CCCCC(C(=O)N/N=C/c1ccc([N+](=O)[O-])o1)C(=O)N/N=C/c1ccc([N+](=O)[O-])o1
0.35

Kindly indicate its recorded log10 GI50. Item: O=P(Nc1cccc(Cl)c1)(Oc1ccccc1)N(CCCl)CCCl (centres undefined)
1.13

Specify log10 GI50 for N#CC1(C#N)C2=C(CCCC2)NC(c2ccc(Br)cc2)C1(C#N)C#N (centres undefined) and stop.
0.38

Note down log10 GI50 recorded for CC1(C)[C@@H]2C[C@H]1c1cnc(-c3ccccn3)cc1C2[C@@H]1c2cc(-c3ccccn3)ncc2[C@@H]2C[C@H]1C2(C)C (some centres undefined)
1.39

Please report the measured log10 GI50 for C=C(NC(=O)C(=C)NC(=O)c1csc(C2=NC3c4csc(n4)C4NC(=O)c5csc(n5)C(C(C)(O)C(C)O)NC(=O)C5CSC(=N5)/C(=C/C)NC(=O)C(C(C)O)NC(=O)c5csc(n5)C3(CC2)NC(=O)C(C)NC(=O)C(=C)NC(=O)C(=C)NC(=O)C(C(C)C)NC2C=Cc3c(C(C)O)cc(nc3C2O)C(=O)OC4C)n1)C(N)=O (centres undefined)
0.97

---

Field: GI50. Provide a value for each of the compounds that follow.
- System: RPMI-8226
- protocol.notes: NCI tumour cell line growth inhibition, 48 h
Activity calls are given as the source filed them. Cut-off read from the data, not from the text of the source: active = GI50 up to about 1.1 µM and inactive = higher.

For CC1(C)CC(C2=NCCO2)CC(C)(C)N1 , write its GI50.
> 100 µM (inactive)

Please supply the value of reported GI50 for the item CCNc1nc2ccccc2nc1NCC
> 100 µM (inactive)

For the compound CCCCCCCCCCCC(=O)OC[C@H](C[As](=O)(O)O)OC(=O)CCCCCCCCCCC , report GI50.
6.03 µM (inactive)

Please look at this compound and report its GI50: COc1ccc(-c2cc(-c3cc(F)c(Cl)cc3Cl)on2)cc1OC
34.7 µM (inactive)

Write down GI50 measured for item CCOC(=O)C1C(c2ccc(OC)cc2)c2c(n[nH]c2O)CC1(C)O (stereo unspecified)
> 100 µM (inactive)

Quick one: give measured GI50 for Cn1c(=O)c2c(no[n+]2[O-])n(C)c1=O
> 100 µM (inactive)

Report GI50, nothing else, for this compound: CN(C)c1ccc(/C=C2\N=C(c3ccccc3)N(c3nc4ccc(Sc5ccccc5)cc4[nH]3)C2=O)cc1
24.8 µM (inactive)

Provide one value: measured GI50 of O=C(Nc1cc(Cl)ccc1Cl)c1cc2cccc(Br)c2oc1=O
> 100 µM (inactive)

Read off the recorded GI50 for O=C(CNc1ccccc1Cl)Nn1c(-c2ccccc2)nc2ccccc2c1=O
28.7 µM (inactive)

Provide one value: measured GI50 of O=c1[nH]n(Cc2ccccn2)c2ccc([N+](=O)[O-])cc12
> 100 µM (inactive)

Quote GI50 reported for CCOC(=O)c1c(SCc2ccccc2)nc2c3ccccc3ccn12 please.
> 100 µM (inactive)
